Molecular target: cloned human glucagon receptor (Homo sapiens)
Construct: The hGlucR cDNA is subcloned into the expression plasmid phD; crude plasma membranes
Sequence (P47871 26-477): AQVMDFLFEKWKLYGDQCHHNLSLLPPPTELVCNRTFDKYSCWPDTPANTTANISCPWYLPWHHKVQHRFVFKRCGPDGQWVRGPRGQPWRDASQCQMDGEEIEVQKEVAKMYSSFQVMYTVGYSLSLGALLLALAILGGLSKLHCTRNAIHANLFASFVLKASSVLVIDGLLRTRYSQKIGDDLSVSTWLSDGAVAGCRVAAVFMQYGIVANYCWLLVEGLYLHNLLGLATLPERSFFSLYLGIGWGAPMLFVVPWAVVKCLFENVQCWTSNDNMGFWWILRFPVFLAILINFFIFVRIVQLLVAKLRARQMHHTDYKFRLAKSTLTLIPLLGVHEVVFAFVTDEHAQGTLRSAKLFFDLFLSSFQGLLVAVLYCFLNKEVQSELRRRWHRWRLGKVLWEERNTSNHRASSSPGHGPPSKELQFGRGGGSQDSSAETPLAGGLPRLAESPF
Test: Glucagon Receptor (hGlucR) Binding Assay
measurement label: Ki (nM)

# molecule, measurement label, observed result
rows = [
    ("CCCC(Sc1cc(C)c(-c2ccc(C(F)(F)F)cc2)c(C)c1)c1ccc(C(=O)NCc2nnn[nH]2)s1 (stereo not shown)", "Ki", 36),
]
